- target: PI3Kβ (Homo sapiens (Human), UniProt P42338)
- Sequence (P42338 whole entry): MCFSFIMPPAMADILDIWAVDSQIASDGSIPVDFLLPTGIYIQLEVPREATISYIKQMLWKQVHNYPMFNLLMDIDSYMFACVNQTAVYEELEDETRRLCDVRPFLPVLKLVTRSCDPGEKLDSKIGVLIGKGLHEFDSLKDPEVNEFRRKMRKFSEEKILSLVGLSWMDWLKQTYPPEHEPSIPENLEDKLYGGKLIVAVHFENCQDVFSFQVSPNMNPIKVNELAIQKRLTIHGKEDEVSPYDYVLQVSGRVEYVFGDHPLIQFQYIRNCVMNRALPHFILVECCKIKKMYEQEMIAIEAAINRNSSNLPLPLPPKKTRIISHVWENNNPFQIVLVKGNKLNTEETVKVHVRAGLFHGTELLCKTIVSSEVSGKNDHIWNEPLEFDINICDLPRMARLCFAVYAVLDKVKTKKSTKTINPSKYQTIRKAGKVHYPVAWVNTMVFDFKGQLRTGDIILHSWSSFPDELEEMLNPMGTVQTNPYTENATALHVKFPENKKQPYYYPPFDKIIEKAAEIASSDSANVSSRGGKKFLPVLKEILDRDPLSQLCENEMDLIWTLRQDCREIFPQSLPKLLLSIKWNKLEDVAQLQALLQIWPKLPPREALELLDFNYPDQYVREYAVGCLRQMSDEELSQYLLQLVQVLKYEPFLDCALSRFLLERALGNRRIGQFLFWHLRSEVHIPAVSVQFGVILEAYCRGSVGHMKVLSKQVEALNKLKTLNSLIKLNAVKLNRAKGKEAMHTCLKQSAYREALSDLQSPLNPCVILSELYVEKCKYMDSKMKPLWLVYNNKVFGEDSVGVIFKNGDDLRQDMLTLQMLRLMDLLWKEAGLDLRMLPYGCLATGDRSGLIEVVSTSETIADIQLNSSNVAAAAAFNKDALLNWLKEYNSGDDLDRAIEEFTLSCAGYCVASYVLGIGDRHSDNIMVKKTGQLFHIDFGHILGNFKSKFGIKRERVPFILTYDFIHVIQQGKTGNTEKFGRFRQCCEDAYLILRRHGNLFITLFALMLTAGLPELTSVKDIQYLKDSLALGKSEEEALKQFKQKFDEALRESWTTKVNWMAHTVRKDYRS
- Sequence (P27986 whole entry partner): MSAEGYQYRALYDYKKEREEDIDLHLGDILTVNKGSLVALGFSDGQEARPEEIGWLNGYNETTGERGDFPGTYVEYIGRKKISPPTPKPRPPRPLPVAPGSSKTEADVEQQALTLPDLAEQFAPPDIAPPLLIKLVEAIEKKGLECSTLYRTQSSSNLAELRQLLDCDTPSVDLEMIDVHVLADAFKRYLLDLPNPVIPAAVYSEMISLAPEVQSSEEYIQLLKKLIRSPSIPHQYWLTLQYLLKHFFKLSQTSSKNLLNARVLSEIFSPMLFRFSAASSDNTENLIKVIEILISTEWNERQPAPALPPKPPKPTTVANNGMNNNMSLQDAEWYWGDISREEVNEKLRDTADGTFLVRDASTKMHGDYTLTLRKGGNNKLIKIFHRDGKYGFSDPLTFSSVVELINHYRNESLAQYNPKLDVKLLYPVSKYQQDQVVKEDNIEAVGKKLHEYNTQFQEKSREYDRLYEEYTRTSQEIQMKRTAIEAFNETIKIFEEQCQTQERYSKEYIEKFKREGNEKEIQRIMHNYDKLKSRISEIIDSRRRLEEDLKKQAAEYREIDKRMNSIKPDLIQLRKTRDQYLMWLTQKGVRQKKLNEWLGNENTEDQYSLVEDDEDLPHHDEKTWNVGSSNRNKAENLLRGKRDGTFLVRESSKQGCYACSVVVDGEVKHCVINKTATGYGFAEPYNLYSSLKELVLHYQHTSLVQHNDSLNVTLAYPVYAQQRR
- method summary: In vitro enzyme inhibition assay (Kinase Glo based enzyme activity assay)
- Format: biochemical
- condition label: Test (a), human recombinant enzyme; read-out: PI3Kβ inhibition, IC50
- Description: (a) In Vitro Enzyme Inhibition Assay The inhibition of PI3Kβ, PI3Kα, PI3Kγ and PI3Kδ was evaluated in a Kinase Glo based enzyme activity assay using human recombinant enzymes. The assay measures depletion of ATP after incubation with enzyme, PIP2 and ATP plus compound. ATP at the end of the reaction is detected by addition of Kinase Glo reagent, in this the Ultra Glo™ luciferase (Promega) uses the ATP as a substrate to catalyze the mono-oxygenation of luciferin and the generation of light. […]
metric: IC50 (nM)

molecule: Cc1ccc(F)cc1NC(C)c1cc(C(=O)N(C)C)cc2c(=O)cc(N3CCOCC3)oc12 (stereo not drawn)
target: PI3Kβ (Homo sapiens (Human), UniProt P42338)
unit text: nM
IC50: 4

molecule: CC(Nc1cc(F)cc(F)c1)c1cc(C(=O)NCCO)cc2c(=O)cc(N3CCOCC3)oc12 (stereo not drawn)
target: PI3Kβ (Homo sapiens (Human), UniProt P42338)
unit text: nM
IC50: 4

molecule: CC(Nc1ccc(F)c(Cl)c1)c1cc(C(=O)N(C)CCO)cc2c(=O)cc(N3CCOCC3)oc12 (stereo not drawn)
target: PI3Kβ (Homo sapiens (Human), UniProt P42338)
unit text: nM
IC50: 4

meta.source: patent US8673906B2
